- MEASUREMENT PROTOCOL: Half life in monkey liver microsomes
- Format: ADME, Macaca mulatta, microsome
- TEST CONTEXT: rhesus monkey
MEASURED ENDPOINT: half-life (min)
Field: numeric (min). Do not append units.

(Q) Consider the compound C=CC(=O)Nc1cc(Nc2nccc(-c3cn4c5c(cccc35)CCC4)n2)c(OC)cc1N(C)CCN(C)C and give its measured half-life.
(A) 28.9

(Q) half-life lookup needed for C=CC(=O)Nc1cc(Nc2nccc(-c3cn(C)c4ccccc34)n2)c(OC)cc1N(C)CCN(C)C , thanks.
(A) 63

* * *

- SUBJECT OF TEST: Epidermal growth factor receptor (Homo sapiens, UniProt P00533, L858R/T790M)
- Sequence (P00533 25-1210 T790M/L858R limits assumed): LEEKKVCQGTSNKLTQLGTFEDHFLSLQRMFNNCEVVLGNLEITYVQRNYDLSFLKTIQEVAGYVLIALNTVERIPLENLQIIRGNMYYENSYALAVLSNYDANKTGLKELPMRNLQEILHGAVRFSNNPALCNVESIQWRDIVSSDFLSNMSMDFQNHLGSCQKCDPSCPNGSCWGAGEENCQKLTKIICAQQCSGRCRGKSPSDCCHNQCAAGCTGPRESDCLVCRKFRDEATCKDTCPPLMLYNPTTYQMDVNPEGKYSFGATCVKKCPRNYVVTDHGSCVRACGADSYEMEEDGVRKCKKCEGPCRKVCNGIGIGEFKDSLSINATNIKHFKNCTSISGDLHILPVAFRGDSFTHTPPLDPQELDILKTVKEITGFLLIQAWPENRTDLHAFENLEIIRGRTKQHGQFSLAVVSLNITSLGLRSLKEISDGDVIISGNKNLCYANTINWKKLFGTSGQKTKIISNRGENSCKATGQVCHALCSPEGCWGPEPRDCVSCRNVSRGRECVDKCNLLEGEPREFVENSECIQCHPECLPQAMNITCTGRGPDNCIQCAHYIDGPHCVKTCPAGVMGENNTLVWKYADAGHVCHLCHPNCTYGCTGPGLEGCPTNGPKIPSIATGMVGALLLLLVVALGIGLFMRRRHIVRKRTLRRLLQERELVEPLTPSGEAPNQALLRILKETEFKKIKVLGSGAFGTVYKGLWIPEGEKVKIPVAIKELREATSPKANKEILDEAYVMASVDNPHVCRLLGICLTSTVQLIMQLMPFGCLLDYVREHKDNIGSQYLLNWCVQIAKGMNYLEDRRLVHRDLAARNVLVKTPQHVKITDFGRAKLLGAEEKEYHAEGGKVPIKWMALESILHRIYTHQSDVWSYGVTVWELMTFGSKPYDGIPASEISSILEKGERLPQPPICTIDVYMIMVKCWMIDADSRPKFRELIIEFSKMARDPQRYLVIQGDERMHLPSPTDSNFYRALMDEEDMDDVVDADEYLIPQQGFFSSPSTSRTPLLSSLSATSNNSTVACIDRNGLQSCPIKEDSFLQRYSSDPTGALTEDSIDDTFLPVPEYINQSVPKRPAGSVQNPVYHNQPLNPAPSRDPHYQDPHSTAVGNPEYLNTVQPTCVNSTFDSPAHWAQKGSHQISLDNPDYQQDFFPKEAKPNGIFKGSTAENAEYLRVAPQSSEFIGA
- MEASUREMENT PROTOCOL: Inhibition of human recombinant cytoplasmic GST-tagged EGFR T790M/L858R double mutant (668 to 1210 residues) expressed in baculovirus using TK-substrate-biotin preincubated for 15 mins followed by substrate addition measured after 60 mins by FRET-based Z'-Lyte assay
MEASURED ENDPOINT: IC50 (µM)
Give the quantity in µM, number only.

Some entries whose results are on file:
C=CC(=O)Nc1cc(Nc2nc(OC)cc(-c3cn(C)c4ccccc34)n2)c(OC)cc1N(C)CCN(C)C ... 0.013
C=CC(=O)Nc1cc(Nc2nccc(-c3cn4c5c(cccc35)CCC4)n2)c(OC)cc1N1CC(CCN(C)C)C1 ... 0.0118
C=CC(=O)Nc1cc(Nc2ncnc(-c3cn(C)c4ccccc34)c2F)c(OC)cc1N(C)CCN(C)C ... 0.0948
C=CC(=O)Nc1cc(Nc2cc(-c3cn(C)c4ccccc34)nc(OC)n2)c(OC)cc1N(C)CCN(C)C ... 0.0109

Kindly review the next compound as well.
(Q) Reported IC50, compound C=CC(=O)Nc1cc(Nc2nccc(-c3cn4c5c(cccc35)CCC4)n2)c(OC)cc1N1CC(CN(C)C)C1 : ____
(A) 0.0067
